Test system: Epithelial cells
Experiment: Interaction of GFP-labelled complexes with cell membrane of epithelial cells (Example II-52, Table II-30)
Format: cell-based
Settings: 24 Hours after medium replaced; GFP-labelled complex, epithelial cells pretreated 4 hours, n=3
Provide the recorded Mean fluorescence intensity for the entries that follow.
Give bare numbers.

- Compound: "CCCCCC=CCC=CCCCCCCCC(=O)OC(C)C(N)C(=O)O (stereo not shown)"
  Target Of Assay: "Epithelial cells"
  Mean fluorescence intensity: 41.5
- Compound: "CCCCCCCCC/C=C/C(=O)OCC1OC(O)C(O)C(O)C1O (stereo not shown)"
  Target Of Assay: "Epithelial cells"
  Mean fluorescence intensity: 38.5
- Compound: "O=C(O)CCCCCCCCCC(=O)OCC(O)C1OC(=O)C(O)=C1O (stereo not shown)"
  Target Of Assay: "Epithelial cells"
  Mean fluorescence intensity: 35.4

Now consider a different compound.
Task item: Determine its reported Mean fluorescence intensity: NC(COC(=O)CCCCCCCCCCCCCCCCCCCCC(=O)O)C(=O)O (stereo not shown)
Reply: 20.4

----------
System: IL-1β
Test: Skin photoaging (UVB) in BALB/c nude mice, serum IL-1β (Example II-54, Table II-33)
Type: in vivo, mouse
Settings: 50 μM smeared; serum, UVB-irradiated BALB/c nude mice, 40 days
Endpoint: IL-1β (pg/mL)
One number for each entry, in pg/mL.

Use these answered entries as a reference point.
- Compound: "CCCCCC=CCC=CCCCCCCCC(=O)OCC(N)C(=O)O (stereo not shown)"
  IL-1β (pg/mL): 54
- Compound: "CCC=CCC=CCC=CCC=CCC=CCC=CCCC(=O)OC(C)C(N)C(=O)O (stereo not shown)"
  IL-1β (pg/mL): 56
- Compound: "CCC=CCC=CCC=CCCCCCCCC(=O)OCC(N)C(=O)O (stereo not shown)"
  IL-1β (pg/mL): 53

Now consider a different compound.
Task item: Determine its reported IL-1β: CCCCCCC(O)CC=CCCCCCCCC(=O)NCCCCC(N)C(=O)O (stereo not shown)
Reply: 65

----------
System: Epithelial cells
Test: Interaction of GFP-labelled complexes with cell membrane of epithelial cells (Example II-52, Table II-30)
Assay type: cell-based
Conditions: 12 Hours after medium replaced; GFP-labelled complex, epithelial cells pretreated 4 hours, n=3
We label by threshold. Values of Mean fluorescence intensity strictly beneath 40 are Y. Values of 40 and up are N.

- Compound: "NC(COC(=O)CCCCCCCCCCCCCCC(=O)O)C(=O)O (stereo not shown)"
  Target Of Assay: "Epithelial cells"
  Label Value: "N"
- Compound: "CCCCCCCCC=CCCCCCCCCCCCC(=O)OC(C)C(N)C(=O)O (stereo not shown)"
  Target Of Assay: "Epithelial cells"
  Label Value: "N"
- Compound: "CC=CC(=O)NCCCCC(N)C(=O)O (stereo not shown)"
  Target Of Assay: "Epithelial cells"
  Label Value: "N"
- Compound: "CCCCC/C=C/C(=O)OCC1OC(O)C(O)C(O)C1O (stereo not shown)"
  Target Of Assay: "Epithelial cells"
  Label Value: "Y"
- Compound: "CCCCCCCCCC(=O)OCC(N)C(=O)O (stereo not shown)"
  Target Of Assay: "Epithelial cells"
  Label Value: "N"

Task item: Bench note: check whether CCCC(=O)OC(C)C(N)C(=O)O (stereo not shown) shows Mean fluorescence intensity below 40
Reply: Y

Task item: Bench note: check whether CCCCCCCCCCCCCCCCCCCC(=O)OC(C)C(N)C(=O)O (stereo not shown) shows Mean fluorescence intensity below 40
Reply: N

Task item: Bench note: check whether CCCCCCCCCCCCCCCC(=O)OC(C)C(N)C(=O)O (stereo not shown) shows Mean fluorescence intensity below 40
Reply: N

Task item: Bench note: check whether CCCCCCCCCCCCCC(=O)OCC(O)C1OC(=O)C(O)=C1O (stereo not shown) shows Mean fluorescence intensity below 40
Reply: Y

Task item: Bench note: check whether CC(OC(=O)CCCCCCC(=O)O)C(N)C(=O)O (stereo not shown) shows Mean fluorescence intensity below 40
Reply: N

Task item: Bench note: check whether Nc1ncnc2c1ncn2[C@@H]1O[C@H](COP(=O)(O)O)[C@@H](O)[C@H]1O.O=C(O)/C=C/C(=O)O [Adenosine monophosphate-fumaric acid] shows Mean fluorescence intensity below 40
Reply: Y

Task item: Bench note: check whether CCCCCCC=CCCCCCCCC(=O)OCC1OC(O)C(O)C(O)C1O (stereo not shown) shows Mean fluorescence intensity below 40
Reply: N

Task item: Bench note: check whether NC(CCCCNC(=O)CCCCCCCCCCCC(=O)O)C(=O)O (stereo not shown) shows Mean fluorescence intensity below 40
Reply: N

Task item: Bench note: check whether NC(COC(=O)CCCCCCCCCCCCCCCCCCCCC(=O)O)C(=O)O (stereo not shown) shows Mean fluorescence intensity below 40
Reply: Y
